- TARGET_OR_TEST_SYSTEM: Nonstructural protein 3 (Zika virus, UniProt A0A024AXB9)
- Sequence (A0A024AXB9 whole entry): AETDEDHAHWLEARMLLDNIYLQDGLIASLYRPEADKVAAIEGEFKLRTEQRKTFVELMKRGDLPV
- METHOD_NOTES: Functional biochemical assay to identify treatments for viral infectious disease that targets Zika NS2B-NS3 protease. Utilizing a direct enzyme activity measurement method, reading the fluorescence intensity is used to characterize the relative potency of inhibitors as IC50.
- Design: species or system PRVABC59
REPORTED_PROPERTY: IC50

Worked set:
# MOLECULE, TARGET_OR_TEST_SYSTEM, REPORTED_MEASUREMENT
rows = [
    ("CC(C)[C@H](CC(=O)O)NC(=O)c1cc(Cl)cc(NC(=O)OCc2ccccc2)c1", "Nonstructural protein 3 (Zika virus, UniProt A0A024AXB9)", "> 99.5 µM"),
    ("CN(C)[C@@H]1CCC[C@@H](C(=O)Nc2cccc(CN)c2)C1", "Nonstructural protein 3 (Zika virus, UniProt A0A024AXB9)", "> 99.5 µM"),
    ("CCn1ccnc(N2CC[C@H](C3CCOCC3)C2)c1=O", "Nonstructural protein 3 (Zika virus, UniProt A0A024AXB9)", "> 99.5 µM"),
    ("O=C(O)c1cc(Cl)ccc1NS(=O)(=O)c1ccc(OCc2nnnn2C2CCC2)cc1", "Nonstructural protein 3 (Zika virus, UniProt A0A024AXB9)", "> 99.5 µM"),
    ("CCn1c(=O)c(N2CCC[C@@H]2c2cncn2C)nc2ccccc21", "Nonstructural protein 3 (Zika virus, UniProt A0A024AXB9)", "> 99.5 µM"),
]

For CCn1cc(-c2cnn(C)n2)nc(N2CC[C@@H](CO)C2)c1=O the molecule record lists IC50 as > 99.5 µM

Quick note, IC50 for O=C(Nc1cc(Cl)cc(C(=O)Nc2ccc(N3CCCNCC3)cc2)c1)OCc1ccccc1 landed at 8.78 µM

Noted for O=C1Cc2c(cc(F)cc2C(=O)Nc2cc([C@H]3CCOC3)ccn2)N1 : its IC50 reads > 25 µM

get_value(item= Cc1noc(C)c1Cc1ccc(C(=O)Nc2cccc(CN)c2)o1 , readout=IC50) returns > 99.5 µM

Recorded IC50 (molecule N#C[C@H](c1cc(Cl)cc(C2CC2)c1)N1c2cnccc2C[C@H]1C(=O)O ): > 99.5 µM

Data credit: ChEMBL document CHEMBL5604062
